Test system: HL-60(TB) leukemia
Test: NCI-60 one-dose screen, 48 h
Conditions: 10 µM unless noted
Compounds without any hit were thinned out: in the full panel of roughly 83,000, 20% have a hit. Active and inactive are the calls of the source. The calls were made as follows: active = growth percent below 10; inactive = the rest.
Write down the outcome that applies. Available outcomes: active, inactive

Some entries whose results are on file:
COC(=O)/C=C1\SC(=Nc2cccc(OC)c2)N(CCc2c[nH]c3ccccc23)C1=O; inactive
CCC1CCCCN1C(=S)N/N=C(\C)c1ccccn1 (configuration not stated); active
O=c1c2ccccc2sc2c(NCCN3CCOCC3)nc3ccccc3c12; inactive
CNC(=O)Oc1ccccc1-c1ccccc1; inactive
O=[N+]([O-])c1ccc(N/N=C(\C(=N/Nc2ccc([N+](=O)[O-])cc2[N+](=O)[O-])c2ccccc2)c2ccccc2)c([N+](=O)[O-])c1; inactive
CCN(CC)c1cc(N)c(Cc2c(N)cc(N(CC)CC)cc2Cl)c(Cl)c1; active
CCCOC(=O)N[C@H]1CCc2cc(OC)c(OC)c(OC)c2-c2ccc(SC)c(=O)cc21; active
COC(=O)/C=C1/SC(=NCc2ccccc2)N(CCc2c[nH]c3ccccc23)C1=O; inactive

For this compound, state the assay outcome: COc1ccc2c(c1)/C(=N/c1n[nH]c(=S)s1)C(=O)N2 inactive

Look up the recorded call for Cc1ccc(NC(=S)N2CCOCC2)cc1C in this test. inactive

====

Overview of recorded growth for various compounds
Test system: MDA-MB-231 breast
Experiment: NCI-60 one-dose screen, 48 h (100 = growth as untreated, 0 = no growth, -100 = all killed)
Details: 10 µM unless noted
This is part of a sample that, as a whole, favours compounds with a hit. Of some 83,000 tested, about 20% had one in any assay.
Express the result in % but write the number alone.

Solved entries (count: 2):
C[C@@H]1CC[C@@H]2[C@@H]1[C@H](OC(=O)/C=C/C1CCCCC1)[C@]1(C3CCCCC3)C[C@@H](OC(=O)CO)[C@@]2(C)O1; 61.5
CNC(=O)Oc1cc(C(C)C)ccc1Sc1ccc(C(C)C)cc1OC(=O)NC; 58.4

Now consider the entry below.
Identify measured growth corresponding to COc1ccc(C2SCC(=O)Nc3c2c(C)nn3-c2nc3ccc(C)cc3s2)cc1O (stereo not drawn) 36

====

Test system: HL-60(TB) leukemia
Experiment: NCI-60 one-dose screen, 48 h (100 = growth as untreated, 0 = no growth, -100 = all killed)
Settings: 10 µM unless noted
The panel holds about 83,000 compounds, 20% with a hit somewhere; the sample as a whole holds those more often. Activity calls are given as the source filed them. Rule for the calls: active = growth percent below 10; inactive = the rest.
// values below are reported growth

Report measured growth on HL-60(TB) leukemia; entry: O=C(O)c1ccc(-c2nn(-c3ccc(C(F)(F)F)cc3)cc2CNc2ccc(Oc3ccccc3)cc2)cc1 35.5% (inactive)

Look up and report growth, with HL-60(TB) leukemia as system, for COc1ccc(Cn2cc3c(c2-c2ccccc2)CCc2cnoc2-3)cc1OC 7.72% (active)

State growth on HL-60(TB) leukemia. Entry: CC(=O)OC1Oc2cc(C)c(C)cc2-c2oc(=O)c(-c3cc4ccc(N(C)C)cc4oc3=O)cc21 (stereo unspecified) 25.6% (inactive)

Provide measured growth on HL-60(TB) leukemia for COC(=O)/C(CCC=C(C)C)=C1\[C@@H](OC(C)=O)C[C@@]2(C)[C@H]1CC(=O)[C@H]1[C@@]3(C)CC[C@H](NCc4ccccc4)[C@@H](C)[C@@H]3CC[C@@]12C please. 84.7% (inactive)

# assay system HL-60(TB) leukemia: give growth of CC(=O)OC(C(=O)c1ccccc1)c1ccccc1 (stereo unspecified) 114% (inactive)
